# System: Staphylococcus aureus
# Test Description: Antibacterial activity against multidrug resistant Staphylococcus aureus ATCC 25923 assessed as bacterial growth inhibition
# Assay type: functional
Entries and their measured MIC follow.
Reported Endpoint: MIC

[[record]]
molecule = "O=C(NNC(=O)[C@@H]1CCCN1C(=O)[C@@H]1CC[C@@H]2CN1C(=O)N2OS(=O)(=O)O)c1cn(C2CC2)c2cc(N3CCNCC3)c(F)cc2c1=O"
result_value = "128 µg/mL"

[[record]]
molecule = "O=C(CNC(=O)[C@@H]1CC[C@@H]2CN1C(=O)N2OS(=O)(=O)O)NNC(=O)c1cn(C2CC2)c2cc(N3CCNCC3)c(F)cc2c1=O"
result_value = "> 256 µg/mL"

[[record]]
molecule = "O=C(NNC(=O)[C@@H]1CC[C@@H]2CN1C(=O)N2OS(=O)(=O)O)c1cn(C2CC2)c2cc(N3CCNCC3)c(F)cc2c1=O"
result_value = "8 µg/mL"

[[record]]
molecule = "O=C(NNC(=O)[C@H](Cc1ccccc1)NC(=O)[C@@H]1CC[C@@H]2CN1C(=O)N2OS(=O)(=O)O)c1cn(C2CC2)c2cc(N3CCNCC3)c(F)cc2c1=O"
result_value = "8 µg/mL"

[[record]]
molecule = "CC[C@H](C)C(NC(=O)[C@@H]1CC[C@@H]2CN1C(=O)N2OS(=O)(=O)O)C(=O)NNC(=O)c1cn(C2CC2)c2cc(N3CCNCC3)c(F)cc2c1=O (stereo not given in full)"
result_value = "> 256 µg/mL"


* * *

# Test system: Escherichia coli
# Test Description: Antibacterial activity against multidrug resistant Escherichia coli ATCC 25922 assessed as bacterial growth inhibition
# Type: functional
Reported Endpoint: MIC (µg/mL)

[[record]]
molecule = "O=C(CCCCCNC(=O)[C@@H]1CC[C@@H]2CN1C(=O)N2OS(=O)(=O)O)NNC(=O)c1cn(C2CC2)c2cc(N3CCNCC3)c(F)cc2c1=O"
reported_endpoint = "MIC"
result_value = 4

[[record]]
molecule = "NC(=O)[C@@H]1CC[C@@H]2CN1C(=O)N2OS(=O)(=O)O [AVIBACTAM]"
reported_endpoint = "MIC"
result_value = 8

[[record]]
molecule = "O=C(CNC(=O)[C@@H]1CC[C@@H]2CN1C(=O)N2OS(=O)(=O)O)NNC(=O)c1cn(C2CC2)c2cc(N3CCNCC3)c(F)cc2c1=O"
reported_endpoint = "MIC"
result_value = 8

[[record]]
molecule = "O=C(NNC(=O)[C@H](Cc1ccccc1)NC(=O)[C@@H]1CC[C@@H]2CN1C(=O)N2OS(=O)(=O)O)c1cn(C2CC2)c2cc(N3CCNCC3)c(F)cc2c1=O"
reported_endpoint = "MIC"
result_value = 16

[[record]]
molecule = "C[C@H](NC(=O)[C@@H]1CC[C@@H]2CN1C(=O)N2OS(=O)(=O)O)C(=O)NNC(=O)c1cn(C2CC2)c2cc(N3CCNCC3)c(F)cc2c1=O"
reported_endpoint = "MIC"
result_value = 1

[[record]]
molecule = "COc1ccc(C[C@H](NC(=O)[C@@H]2CC[C@@H]3CN2C(=O)N3OS(=O)(=O)O)C(=O)NNC(=O)c2cn(C3CC3)c3cc(N4CCNCC4)c(F)cc3c2=O)cc1OC"
reported_endpoint = "MIC"
result_value = 32


* * *

# Test Description: Hemolytic activity in human RBC assessed as hemolysis at 512 ug/ml
# Type: toxicity, cell-based, Erythrocyte
# Assay Context: red blood cells (RBC), at 512 µg/mL, read-out: Activity
Reported Endpoint: hemolysis at 512 ug/ml

[[record]]
molecule = "CC(C)[C@H](NC(=O)[C@@H]1CC[C@@H]2CN1C(=O)N2OS(=O)(=O)O)C(=O)NNC(=O)c1cn(C2CC2)c2cc(N3CCNCC3)c(F)cc2c1=O"
result_value = "5.1%"

[[record]]
molecule = "O=C(CNC(=O)[C@@H]1CC[C@@H]2CN1C(=O)N2OS(=O)(=O)O)NNC(=O)c1cn(C2CC2)c2cc(N3CCNCC3)c(F)cc2c1=O"
result_value = "5.74%"

[[record]]
molecule = "NC(=O)[C@@H]1CC[C@@H]2CN1C(=O)N2OS(=O)(=O)O [AVIBACTAM]"
result_value = "3.87%"

[[record]]
molecule = "O=C(NNC(=O)[C@@H]1CC[C@@H]2CN1C(=O)N2OS(=O)(=O)O)c1cn(C2CC2)c2cc(N3CCNCC3)c(F)cc2c1=O"
result_value = "4.27%"

